- Measurement target: κ-opioid receptor (KOR) (Homo sapiens, UniProt P41145)
- Sequence (P41145 whole entry): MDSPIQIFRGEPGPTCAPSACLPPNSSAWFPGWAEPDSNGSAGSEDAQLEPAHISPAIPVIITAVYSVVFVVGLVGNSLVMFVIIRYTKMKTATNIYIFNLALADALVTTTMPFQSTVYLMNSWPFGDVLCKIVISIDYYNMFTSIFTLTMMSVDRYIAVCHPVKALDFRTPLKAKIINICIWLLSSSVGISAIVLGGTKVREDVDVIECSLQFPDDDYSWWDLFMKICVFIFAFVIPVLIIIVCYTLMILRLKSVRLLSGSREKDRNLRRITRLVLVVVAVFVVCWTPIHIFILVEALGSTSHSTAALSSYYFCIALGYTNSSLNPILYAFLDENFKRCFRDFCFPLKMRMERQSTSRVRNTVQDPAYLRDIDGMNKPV
- Assay type: binding
Attribute measured: Selectivity DOR/KOR

Smiles data	Measurement target	Result
COC(=O)/C=C/C(=O)O[C@H]1C[C@@H](C(=O)OC)[C@]2(C)CC[C@H]3C(=O)O[C@H](c4ccoc4)C[C@]3(C)[C@H]2C1=O	κ-opioid receptor (KOR) (Homo sapiens, UniProt P41145)	>256
CCOC(=O)CC(=O)O[C@H]1C[C@@H](C(=O)OC)[C@]2(C)CC[C@H]3C(=O)O[C@H](c4ccoc4)C[C@]3(C)[C@H]2C1=O	κ-opioid receptor (KOR) (Homo sapiens, UniProt P41145)	>476
COC(=O)[C@@H]1C[C@H](OC(=O)CCCC(=O)O)C(=O)[C@H]2[C@@]1(C)CC[C@H]1C(=O)O[C@H](c3ccoc3)C[C@]21C	κ-opioid receptor (KOR) (Homo sapiens, UniProt P41145)	>38
COC(=O)CCC(=O)O[C@H]1C[C@@H](C(=O)OC)[C@]2(C)CC[C@H]3C(=O)O[C@H](c4ccoc4)C[C@]3(C)[C@H]2C1=O	κ-opioid receptor (KOR) (Homo sapiens, UniProt P41145)	>277
COC(=O)[C@@H]1C[C@H](OC(=O)CC(=O)OC(C)(C)C)C(=O)[C@H]2[C@@]1(C)CC[C@H]1C(=O)O[C@H](c3ccoc3)C[C@]21C	κ-opioid receptor (KOR) (Homo sapiens, UniProt P41145)	>67
COC(=O)[C@@H]1C[C@H](OC(=O)c2ccccc2C(=O)O)C(=O)[C@H]2[C@@]1(C)CC[C@H]1C(=O)O[C@H](c3ccoc3)C[C@]21C	κ-opioid receptor (KOR) (Homo sapiens, UniProt P41145)	>4

**Query** Can you look up the measured Selectivity DOR/KOR of `CCOC(=O)CCC(=O)O[C@H]1C[C@@H](C(=O)OC)[C@]2(C)CC[C@H]3C(=O)O[C@H](c4ccoc4)C[C@]3(C)[C@H]2C1=O` for me?
**Result** >23

====

- Measurement target: UniProt P41145
- Assay type: binding
Attribute measured: Selectivity DOR/KOR

# annotated cases, reported Selectivity DOR/KOR shown
Smiles data	Attribute measured	Result
COC(=O)CCCCC(=O)O[C@H]1C[C@@H](C(=O)OC)[C@]2(C)CC[C@H]3C(=O)O[C@H](c4ccoc4)C[C@]3(C)[C@H]2C1=O	Selectivity DOR/KOR	>17
CCOC(=O)/C=C/C(=O)O[C@H]1C[C@@H](C(=O)OC)[C@]2(C)CC[C@H]3C(=O)O[C@H](c4ccoc4)C[C@]3(C)[C@H]2C1=O	Selectivity DOR/KOR	>23

**Query** Can you look up the measured Selectivity DOR/KOR of `COC(=O)CCCC(=O)O[C@H]1C[C@@H](C(=O)OC)[C@]2(C)CC[C@H]3C(=O)O[C@H](c4ccoc4)C[C@]3(C)[C@H]2C1=O` for me?
**Result** >33

====

- Measurement target: κ-opioid receptor (KOR) (Homo sapiens, UniProt P41145)
- Format: binding
Recorded Selectivity MOR/KOR for the following compounds

# annotated cases, reported Selectivity MOR/KOR shown
Smiles data	Attribute measured	Result
COC(=O)CCC(=O)O[C@H]1C[C@@H](C(=O)OC)[C@]2(C)CC[C@H]3C(=O)O[C@H](c4ccoc4)C[C@]3(C)[C@H]2C1=O	Selectivity MOR/KOR	>277
COC(=O)CC(=O)O[C@H]1C[C@@H](C(=O)OC)[C@]2(C)CC[C@H]3C(=O)O[C@H](c4ccoc4)C[C@]3(C)[C@H]2C1=O	Selectivity MOR/KOR	>5000

**Query** Can you look up the measured Selectivity MOR/KOR of `COC(=O)[C@@H]1C[C@H](OC(=O)c2ccccc2C(=O)O)C(=O)[C@H]2[C@@]1(C)CC[C@H]1C(=O)O[C@H](c3ccoc3)C[C@]21C` for me?
**Result** >4

**Query** Then `CCOC(=O)CC(=O)O[C@H]1C[C@@H](C(=O)OC)[C@]2(C)CC[C@H]3C(=O)O[C@H](c4ccoc4)C[C@]3(C)[C@H]2C1=O` ?
**Result** >476

**Query** Then `COC(=O)[C@@H]1C[C@H](OC(=O)CC(=O)OC(C)(C)C)C(=O)[C@H]2[C@@]1(C)CC[C@H]1C(=O)O[C@H](c3ccoc3)C[C@]21C` ?
**Result** >67

**Query** Then `CCOC(=O)CCC(=O)O[C@H]1C[C@@H](C(=O)OC)[C@]2(C)CC[C@H]3C(=O)O[C@H](c4ccoc4)C[C@]3(C)[C@H]2C1=O` ?
**Result** >23

**Query** Then `COC(=O)CCCCC(=O)O[C@H]1C[C@@H](C(=O)OC)[C@]2(C)CC[C@H]3C(=O)O[C@H](c4ccoc4)C[C@]3(C)[C@H]2C1=O` ?
**Result** >17

====

- Measurement target: κ-opioid receptor (KOR) (Homo sapiens, UniProt P41145)
- Assay type: binding
# Fold reduction of KOR affinity compared to 1 >= 20 fold gives YES, anything below gives NO

Smiles data	Measurement target	Cat
COC(=O)CCC(=O)O[C@H]1C[C@@H](C(=O)OC)[C@]2(C)CC[C@H]3C(=O)O[C@H](c4ccoc4)C[C@]3(C)[C@H]2C1=O	κ-opioid receptor (KOR) (Homo sapiens, UniProt P41145)	NO
COC(=O)/C=C/C(=O)O[C@H]1C[C@@H](C(=O)OC)[C@]2(C)CC[C@H]3C(=O)O[C@H](c4ccoc4)C[C@]3(C)[C@H]2C1=O	κ-opioid receptor (KOR) (Homo sapiens, UniProt P41145)	NO
COC(=O)CCCC(=O)O[C@H]1C[C@@H](C(=O)OC)[C@]2(C)CC[C@H]3C(=O)O[C@H](c4ccoc4)C[C@]3(C)[C@H]2C1=O	κ-opioid receptor (KOR) (Homo sapiens, UniProt P41145)	YES

**Query** Check this compound for Fold reduction of KOR affinity compared to 1 at or above 20 fold: `COC(=O)[C@@H]1C[C@H](OC(=O)CC(=O)OC(C)(C)C)C(=O)[C@H]2[C@@]1(C)CC[C@H]1C(=O)O[C@H](c3ccoc3)C[C@]21C`
**Result** YES

**Query** Then `CCOC(=O)CC(=O)O[C@H]1C[C@@H](C(=O)OC)[C@]2(C)CC[C@H]3C(=O)O[C@H](c4ccoc4)C[C@]3(C)[C@H]2C1=O` ?
**Result** NO

**Query** Then `CCOC(=O)CCC(=O)O[C@H]1C[C@@H](C(=O)OC)[C@]2(C)CC[C@H]3C(=O)O[C@H](c4ccoc4)C[C@]3(C)[C@H]2C1=O` ?
**Result** YES

Every entry's value here was drawn from paper PMC3651692.
